Where these numbers come from: patent US20160068605A1

Task for the reader: assign each of the following binders its reported koff.
Molecular target: T1, Recombinant human CD123 SP1 ECD-His tag protein (human, UniProt P26951 20-305)
T1 construct: bought from R&D Systems (#301-R3/CF); biotinylated for some assays; also called rhCD123 SP1; huCD123 ECD SP1
T1 sequence: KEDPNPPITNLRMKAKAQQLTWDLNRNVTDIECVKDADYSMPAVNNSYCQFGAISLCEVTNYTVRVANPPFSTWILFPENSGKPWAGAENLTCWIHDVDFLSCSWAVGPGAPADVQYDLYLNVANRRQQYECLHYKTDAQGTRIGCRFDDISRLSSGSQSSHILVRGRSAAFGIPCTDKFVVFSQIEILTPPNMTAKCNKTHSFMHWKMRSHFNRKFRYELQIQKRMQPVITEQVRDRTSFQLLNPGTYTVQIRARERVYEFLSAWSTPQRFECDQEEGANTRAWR
Test: SPR Biacore 3000, captured mAb
Answers are plain numbers, in s⁻¹.

# binder, measure, measured
rows = [
    ("I3RB2 (antibody, IgG1, V domains shown, IgG1; also called I3RB02; 13RB2) VH: EVQLLESGGGLVQPGGSLRLSCAASGFTFSGYWMHWVRQAPGKGLEWVSAIRSDGSSKYYADSVKGRFTISRDNSKNTLYLQMNSLRAEDTAVYYCAKDGVIEDTFDYWGQGTLVTVSS VL: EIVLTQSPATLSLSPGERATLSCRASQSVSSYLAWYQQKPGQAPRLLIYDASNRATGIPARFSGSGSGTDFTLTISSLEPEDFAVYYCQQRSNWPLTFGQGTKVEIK", "koff", 0.00372),
    ("I3RB18 (antibody, IgG1, V domains shown, IgG1; also called 13RB18; mAb I3RB18) VH: EVQLVQSGAEVKKPGESLKISCKGSGYSFTSYWISWVRQMPGKGLEWMGIIDPSDSDTRYSPSFQGQVTISADKSISTAYLQWSSLKASDTAMYYCARGDGSTDLDYWGQGTLVTVSS VL: EIVLTQSPGTLSLSPGERATLSCRASQSVSSSYLAWYQQKPGQAPRLLIYGASSRATGIPDRFSGSGSGTDFTLTISRLEPEDFAVYYCQQDYGFPWTFGQGTKVEIK", "koff", 0.000808),
    ("I3RB37 (antibody, IgG1, V domains shown, IgG1) VH: QVQLVQSGAEVKKPGSSVKVSCKASGGTFSSYAISWVRQAPGQGLEWMGGIIPIFGTANYAQKFQGRVTITADESTSTAYMELSSLRSEDTAVYYCARDKTDFPSRLDYWGQGTLVTVSS VL: DIQMTQSPSSLSASVGDRVTITCRASQSIATWLNWYQQKPGKAPKLLIYAASSLQSGVPSRFSGSGSGTDFTLTISSLQPEDFATYYCQQYITFPLTFGQGTKVEIK", "koff", 0.0053),
]

Attention now shifts to the item below.
Looking up I3RB35 (antibody, IgG1, V domains shown, IgG1) VH: QVQLVQSGAEVKKPGSSVKVSCKASGGTFSSYAISWVRQAPGQGLEWMGGIIPIFGTANYAQKFQGRVTITADESTSTAYMELSSLRSEDTAVYYCARHLFWDAGPLDYWGQGTLVTVSS VL: DIQMTQSPSSLSASVGDRVTITCRASQSISSYLNWYQQKPGKAPKLLIYAASSLQSGVPSRFSGSGSGTDFTLTISSLQPEDFATYYCQQYFSPPYTFGQGTKVEIK , I see its koff listed as 0.00258
